Origin of values: the OligoGym collection

# target.or.system: DUSP8
# assay.setup: ASO; also: test concentration or dose not given here
These antisense oligonucleotides have a phosphorothioate backbone; sugars and methylation of C are not fully specified.
For each record, check the reported remaining target (mRNA or protein) (fraction of control): if it is below 0.7 write label 1, else write label 0.

{"input.sequence": "GGGCAGCCCGGGCGCCGACA", "assigned.category": "label 0"}
{"input.sequence": "ATCAGATCCTTGTTTAGGAC", "assigned.category": "label 0"}
{"input.sequence": "TTGCTGGCGTTGAGGACGTA", "assigned.category": "label 1"}
{"input.sequence": "AGCTGGCCCAGGAAGTTGAA", "assigned.category": "label 0"}

###

# target.or.system: PTEN
# assay.setup: ASO
These antisense oligonucleotides have a phosphorothioate backbone; sugars and methylation of C are not fully specified.
Returns: string. Value is true (1) if measured remaining target (mRNA or protein) (fraction of control) is below 0.3, and false (0) if it is greater than or equal to it.

{"input.sequence": "CCGGGTCCCTGGATGTGC", "assigned.category": "true (1)"}
{"input.sequence": "TAAATAGCTGGAGATGGT", "assigned.category": "false (0)"}
{"input.sequence": "TATTTTCATGGTGTTTTA", "assigned.category": "true (1)"}
{"input.sequence": "GTGTCAAAACCCTGTGGA", "assigned.category": "true (1)"}
{"input.sequence": "TCTGGATCAGAGTCAGTG", "assigned.category": "false (0)"}
{"input.sequence": "TGCTAACGATCTCTTTGA", "assigned.category": "false (0)"}
{"input.sequence": "CGGGCGCCTCGGAAGACC", "assigned.category": "false (0)"}
{"input.sequence": "GGGAGGTGCCGCCGCCGC", "assigned.category": "false (0)"}
{"input.sequence": "TTAAATTTGGCGGTGTCA", "assigned.category": "false (0)"}
{"input.sequence": "TGTTCCTATAACTGGTAA", "assigned.category": "false (0)"}
{"input.sequence": "ATTTCTTGATCACATAGA", "assigned.category": "false (0)"}
{"input.sequence": "CGAGAGGCGGACGGGACC", "assigned.category": "false (0)"}
{"input.sequence": "TGCTAGCCTCTGGATTTG", "assigned.category": "true (1)"}
{"input.sequence": "TGTCTCTGGTCCTTACTT", "assigned.category": "false (0)"}
{"input.sequence": "CAGGAGAAGCCGAGGAAG", "assigned.category": "false (0)"}
{"input.sequence": "ATGGTGACAGGCGACTCA", "assigned.category": "true (1)"}
{"input.sequence": "ATTACACCAGTTCGTCCC", "assigned.category": "false (0)"}
{"input.sequence": "ATTGTTGCTGTGTTTCTT", "assigned.category": "false (0)"}
{"input.sequence": "GGAAGAACTCTACTTTGA", "assigned.category": "false (0)"}
{"input.sequence": "TGGCTGCAGCTTCCGAGA", "assigned.category": "true (1)"}
{"input.sequence": "CAAGATCTTCACAAAAGG", "assigned.category": "false (0)"}
{"input.sequence": "AATTATTTCCTTTCTGAG", "assigned.category": "false (0)"}
{"input.sequence": "TAGCAAAACCTTTCGGAA", "assigned.category": "false (0)"}
{"input.sequence": "ACATAGCGCCTCTGACTG", "assigned.category": "true (1)"}
{"input.sequence": "CAGATTAATAACTGTAGC", "assigned.category": "false (0)"}
{"input.sequence": "GGTTGGCTTTGTCTTTAT", "assigned.category": "true (1)"}
{"input.sequence": "GAATATATCTTCACCTTT", "assigned.category": "false (0)"}
{"input.sequence": "ACTGGAATAAAACGGGAA", "assigned.category": "false (0)"}
{"input.sequence": "TGAAGAATGTATTTACCC", "assigned.category": "false (0)"}
{"input.sequence": "TGTGAAACAACAGTGCCA", "assigned.category": "true (1)"}
{"input.sequence": "CCTCCGAACGGCTGCCTC", "assigned.category": "false (0)"}
{"input.sequence": "CCCGCGGCTGCTCACAGG", "assigned.category": "true (1)"}
{"input.sequence": "TGTTTCAAGCCCATTCTT", "assigned.category": "false (0)"}
{"input.sequence": "CCCCAATACAGATTCACT", "assigned.category": "false (0)"}
{"input.sequence": "ACTTCAGTTGGTGACAGA", "assigned.category": "false (0)"}
{"input.sequence": "TCTCCTCAGCAGCCAGAG", "assigned.category": "false (0)"}
{"input.sequence": "TCTTCTGCAGGATGGAAA", "assigned.category": "false (0)"}
{"input.sequence": "CGCTTGGCTCTGGACCGC", "assigned.category": "true (1)"}
{"input.sequence": "TCAATATTGTTCCTGTAT", "assigned.category": "false (0)"}
{"input.sequence": "GGATAAATATAGGTCAAG", "assigned.category": "false (0)"}
